Origin of measurements: patent USRE37781E1

The following compounds are shown together with reported pKi values.
system tested: single-chain tethered dimer of HIV protease (Human immunodeficiency virus 1, UniProt P04585)
test details: biochemical
Assay type: biochemical
Parameters: fused on or other part: A second copy of the same protease unit is joined to the first by a short peptide tether, giving one polypeptide
condition details: read-out: HPLC K1; Table 2d; class symbols
pKi: −log10 of the molar value.

Solved cases (5 shown):
CCNC(=O)c1cccc(CN2C(=O)N(Cc3cccc(C(=O)NCC)c3)C(Cc3ccccc3)C(O)C(O)C2Cc2ccccc2)c1 (centres unmarked) [11R] = > 8.00
Nc1cccc(CN2C(=O)N(Cc3cccc(O)c3)C(Cc3ccccc3)C(O)C(O)C2Cc2ccccc2)c1 (centres unmarked) [11Q] = > 8.00
CC(=O)OCCCCCCN1C(=O)N(CCCCCCO)C(Cc2ccccc2)C(O)C(O)C1Cc1ccccc1 (centres unmarked) [Example 12V] = 6.00 to 8.00
O=C1N(CCCCO)C(Cc2ccccc2)C(O)C(O)C(Cc2ccccc2)N1CCCCO (centres unmarked) [Example 12F] = 6.00 to 8.00
O=C1N(CCCCCCO)C(Cc2ccccc2)C(O)C(O)C(Cc2ccccc2)N1Cc1ccc2ccccc2c1 (centres unmarked) [Example 15VQ] = > 8.00

Measured pKi of Nc1cccc(CN2C(=O)N(Cc3ccc(CO)cc3)C(Cc3ccccc3)C(O)C(O)C2Cc2ccccc2)c1 (centres unmarked) [15A] : > 8.00

Measured pKi of CONC(=O)c1ccc(CN2C(=O)N(Cc3ccc(C(=O)NOC)cc3)C(Cc3ccccc3)C(O)C(O)C2Cc2ccccc2)cc1 (centres unmarked) [10S] : > 8.00

Measured pKi of O=C1N(Cc2cccc(C=NCCO)c2)C(Cc2ccccc2)C(O)C(O)C(Cc2ccccc2)N1Cc1cccc(C=NCCO)c1 (centres unmarked) [Example 9J] : 6.00 to 8.00

Measured pKi of O=C1N(CCCCCO)C(Cc2ccccc2)C(O)C(O)C(Cc2ccccc2)N1CCCCCO (centres unmarked) [Example 13H] : > 8.00

Measured pKi of CCNC(=O)c1cccc(CN2C(=O)N(Cc3cccc(CO)c3)C(Cc3ccccc3)C(O)C(O)C2Cc2ccccc2)c1 (centres unmarked) [15WK] : > 8.00

Measured pKi of COCCCCCN1C(=O)N(CCCCCOC)C(Cc2ccccc2)C(O)C(O)C1Cc1ccccc1 (centres unmarked) [Example 15VV] : 6.00 to 8.00

Measured pKi of O=C1N(Cc2ccccc2)C(Cc2ccccc2)C(O)C(O)C(Cc2ccccc2)N1Cc1cccc(O)c1 (centres unmarked) [11I] : > 8.00

Measured pKi of O=C1N(CCCCCCO)C(Cc2ccccc2)C(O)C(O)C(Cc2ccccc2)N1CCCCCCCl (centres unmarked) [Example 15VE] : 6.00 to 8.00

Measured pKi of CNC(=O)c1cccc(CN2C(=O)N(Cc3cccc(CO)c3)C(Cc3ccccc3)C(O)C(O)C2Cc2ccccc2)c1 (centres unmarked) [11M] : > 8.00

Measured pKi of O=C1CCC(CN2C(=O)NC(Cc3ccccc3)C(O)C(O)C2Cc2ccccc2)CC1 (centres unmarked) [Example 15VA] : 6.00 to 8.00
